Data credit: PubChem BioAssay (Tox21)

Tested Target: Estrogen receptor beta (Homo sapiens)
Measurement Description: qHTS assay to identify small molecule antagonists of the estrogen receptor beta (ER-beta) signaling pathway (AID 1259378)
Condition Info: ER-beta-UAS-bla HEK293T, beta-lactamase FRET ratio, 16 h; series mostly up to 92.4 µM
Inconclusive results are not listed. Active and inactive are the calls of the source. Calls follow the shape of the dose curve; as a rule, active = well fitted inhibition curve with a large enough effect in the signal ratio in the repeat runs (not every such curve was filed as active); inconclusive = weak or mixed curves, or effect the other way; inactive = no such curve, though single readings can be large or run the other way; the % refers to the signal ratio.
Hi there, use one of these labels in your reply, thanks! TRUE for active, FALSE for inactive

[
  {
    "Molecule": "CCOC(=O)Cc1ccccc1",
    "Answer Label": "FALSE"
  },
  {
    "Molecule": "[O]=[Cr][O][Cr]=[O]",
    "Answer Label": "FALSE"
  },
  {
    "Molecule": "CCOP(=O)(OCC)Oc1cc(C)nc(C(C)C)n1",
    "Answer Label": "FALSE"
  }
]

Ask: Record lookup: outcome of this test for BrCC(Br)(Br)Br ?
Reply: FALSE

Ask: What about Cc1cc(C2CC2)nc(Nc2ccccc2)n1 ?
Reply: FALSE

Ask: What about O=NN(CCO)CCO ?
Reply: FALSE

Ask: What about CC(Cc1ccc(OCC(=O)O)cc1)NCC(O)c1csc(C(F)(F)F)n1 (centres undefined) ?
Reply: FALSE

Ask: What about Clc1ccc(C(Cl)(Cl)Cl)cc1Cl ?
Reply: FALSE

Ask: What about N#Cc1ccc(N(CC(N)=O)CC(F)(F)F)cc1C(F)(F)F ?
Reply: FALSE

Ask: What about N#CSCc1ccccc1 ?
Reply: FALSE

Ask: What about CCNc1nc(NC(C)C(C)C)nc(SC)n1 (centres undefined) ?
Reply: FALSE

Ask: What about O=C(O)CCCCCCNC1c2ccccc2CCc2ccccc21 ?
Reply: FALSE

Ask: What about COc1cnc(OC)n2nc(NS(=O)(=O)c3c(OCC(F)F)cccc3C(F)(F)F)nc12 ?
Reply: FALSE

Ask: What about Oc1cccc(Cl)c1Cl ?
Reply: FALSE

Ask: What about Nc1nc(N)nc(Cl)n1 ?
Reply: FALSE

Ask: What about CNC(=O)CSP(=O)(OC)OC ?
Reply: FALSE

Ask: What about CCC[CH2][Sn]([CH2]CCC)([O]C(C)=O)[O]C(C)=O ?
Reply: TRUE

Ask: What about O=C(N[C@H]1N=C(c2ccccc2F)c2cccc3c2N(CC3)C1=O)c1cc2ccccc2[nH]1 ?
Reply: FALSE

Ask: What about CC(=O)[O][Pb]([c]1ccccc1)([c]1ccccc1)[c]1ccccc1 ?
Reply: TRUE

Ask: What about CNC(=O)/C=C(\C)OP(=O)(OC)OC ?
Reply: FALSE

Ask: What about O=[N+]([O-])c1ccc(Cl)c(Cl)c1Cl ?
Reply: FALSE

Ask: What about Nc1cc(Cl)ccc1Cl ?
Reply: FALSE

Ask: What about ClSC(Cl)(Cl)Cl ?
Reply: FALSE
